Entries and their %Inh
System: TGFBR1
Settings: concentration: 1 μM, replicates: in singlicate; n = 1;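 also: KINOMEscan kinase panel screen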
Number only, in %; omit the unit.

Guide cases for %Inh, answers given:
INSERT INTO assay_data (molecular_string, unit_string, readout_value) VALUES
  ('Fc1ccc(-c2nc3n(c2-c2ccncc2)CCS3)cc1', '%', 26),
  ('Nc1cccc(-c2ccc3c(N)n[nH]c3c2)n1', '%', 3),
  ('Cc1ccc(NC(=O)c2ccc(Cl)cc2)cc1-c1ccc(C(=O)Nc2ccncc2)cc1', '%', 1),
  ('CC(=O)c1c(C)c2cnc(Nc3ccn(C)n3)nc2n(C2CCCC2)c1=O', '%', 0),
  ('Cc1ccc(NC(=O)Nc2ccccc2)cc1-c1ccc(C(=O)Nc2ccncc2)cc1', '%', 0),
  ('Cc1ccccc1Cn1ccn2c(=O)cc(N3CCOCC3)nc12', '%', 0);

Next compound, please.
query: Report %Inh, nothing else, for this compound: Fc1ccc(-c2nn3cccc(F)c3c2-c2ccncc2)cc1
result: 17

---

Test system: LYN
Conditions: concentration: 1 μM, replicates: in singlicate; n = 1
In this section we review reported %Inh values for a set of compounds.
// units = %; emit number, no label

Below: 3 compounds and their reported %Inh.
INSERT INTO measurements (compound, experimental_system, measurement_label, readout_value) VALUES
  ('Cc1c(Cn2c(C)c(C)n3c(=O)cc(N4CCOCC4)nc23)cccc1C(F)(F)F', 'LYN', '%Inh', 0),
  ('CC[C@@H]1CO[C@H](C(=O)Nc2ccccc2)CN1c1cc(-c2ccc3c(N)n[nH]c3c2)nc(NC)n1', 'LYN', '%Inh', 0),
  ('O=C(Nc1n[nH]c2nc(-c3cccs3)c(Br)cc12)C1CC1', 'LYN', '%Inh', 15);

query: Dear colleague, please send me the reported %Inh for CC(=O)c1cccc(NC(=O)NC2CCN(c3ccnc(Nc4ccc(F)cc4)n3)C2)c1 (stereo not shown) when you can.
result: 0

query: // fetch %Inh given entry CCc1ccc(-c2ccc3c(c2)-c2n[nH]cc2S(=O)(=O)N3C)cc1
result: 0

query: Please look at this compound and report its %Inh: COC(=O)C(Cc1ccccc1)NC(=O)NC1CCN(c2ccnc(Nc3ccc(F)cc3)n2)C1 (stereo not shown)
result: 22

query: Give recorded %Inh. Cl.Cl.Cl.N#Cc1ccc(CCNc2nccc(-c3cccc(CN4CCNCC4)c3)n2)cc1
result: 1

query: Supply recorded %Inh for CC(C)c1cc(-c2ccc3c(N)n[nH]c3c2)nc(N)n1 here.
result: 0

query: Please report %Inh for the following compound: COc1nccc(-c2c(-c3ccc(F)cc3)ncn2CCCN2CCOCC2)n1
result: 0

query: Recall and state the measured %Inh for Nc1ncnc2occ(-c3ccc4c(c3)CCN4C(=O)Cc3cc(F)ccc3F)c12 .
result: 0

---

Test system: MST1
Construct: gene STK4
Conditions: concentration: 1 μM, replicates: in singlicate; n = 1
Returns fulfilled if the recorded %Inh is greater than or equal to 8%, and not fulfilled otherwise.

A selection of reference data follows.
INSERT INTO measurements (compound, group) VALUES
  ('O=c1cc(N2CCOCC2)nc2n(Cc3cccc(Cl)c3Cl)c3ccccc3n12', 'fulfilled'),
  ('Cc1ccc(NC(=O)c2ccc(Cl)cc2)cc1-c1ccc(C(=O)Nc2ccncc2)cc1', 'fulfilled'),
  ('Cc1cnc(N)c(/C=C/c2cncc(C(=O)NCCc3ccc(Cl)cc3Cl)c2)c1.Cl', 'not fulfilled'),
  ('COc1ccc(Nc2nccc(N3CCC(NC(=O)C(C)c4ccc(Cl)cc4)C3)n2)cc1 (stereo not drawn)', 'fulfilled');

query: Kindly determine if %Inh recorded for CC(C)c1cc(-c2ccc3c(N)n[nH]c3c2)nc(N)n1 is above or exactly 8%.
result: not fulfilled

query: For this compound, is measured %Inh 8% or higher? CC(C)c1ccc(O)cc1Nc1ccnc2ccc(C(F)(F)F)cc12
result: not fulfilled

query: Quick check, %Inh >= 8%? Cl.Cl.Cl.N#Cc1ccc(CCNc2nccc(-c3cccc(CN4CCNCC4)c3)n2)cc1
result: not fulfilled

query: Determine whether measured %Inh meets or exceeds 8% for Fc1ccc(-c2nc[nH]c2-c2ccncc2)cc1
result: fulfilled

query: Is the recorded value of %Inh equal to or greater than 8% for this compound? CNc1cc(-c2ccc3c(N)n[nH]c3c2)nc(N)n1
result: not fulfilled

query: Hi team, for CC(=O)c1c(C)c2cnc(Nc3ccn(C)n3)nc2n(C2CCCC2)c1=O , is the recorded %Inh at or above 8%?
result: not fulfilled
